Cited source: patent US9567623B2

So I've got a bunch of compounds here, and I need their Maximum Luminescence Intensity (Imax, %) values.
# system.name: Aequorin (Aequorea victoria)
# Construct: made in house
# Sequence (P07164 8-196): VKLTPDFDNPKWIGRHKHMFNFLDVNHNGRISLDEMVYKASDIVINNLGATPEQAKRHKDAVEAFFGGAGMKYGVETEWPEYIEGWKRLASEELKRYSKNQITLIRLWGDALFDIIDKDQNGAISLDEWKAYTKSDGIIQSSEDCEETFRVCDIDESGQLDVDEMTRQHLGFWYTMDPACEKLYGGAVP
# Format: biochemical, jellyfish
# measurement.parameters: relative to coelenterazine = 100
# output: number + unit

O=c1c(Cc2ccc(F)cc2)nc2c(Cc3ccccc3)[nH]c(-c3ccccc3)cn1-2	0.12%
Oc1ccc(-c2cn3c(O)c(Cc4ccccc4)nc3c(Cc3ccccc3)n2)cc1	84.0%
O=c1c(Cc2ccc(F)cc2)nc2c(Cc3ccccc3)[nH]c(-c3ccc(O)cc3)cn1-2	42.3%

Now for the compound whose Maximum Luminescence Intensity (Imax, %) we want.
Request: I'd like to know its Maximum Luminescence Intensity (Imax, %). The compound in question is O=c1c(Cc2ccco2)nc2c(Cc3ccccc3)[nH]c(-c3ccccc3)cn1-2
Response: 0.02%
